These data points were gathered from the supplement of paper PMC8728848.

- test-system: Fuc(a1-2)[GalNAc(a1-3)]Gal(b1-4)GlcNAc(b1-3)Gal(b1-4)GlcNAc(b1-3)Gal(b1-4)GlcNAc
- test-name: glycan array binding signal (z-score within array); higher = stronger binding
- setup-conditions: glycan notation: IUPAC condensed, linker removed
Only a selection was taken, and the strongest signals are over-represented in it overall.
Hi, to clarify the labels: YES covers glycan array binding signal (z-score) from -0.08 upward, NO covers anything below -0.08.

Consider the following illustrative entries.
Gal 7 (Canis lupus) (protein) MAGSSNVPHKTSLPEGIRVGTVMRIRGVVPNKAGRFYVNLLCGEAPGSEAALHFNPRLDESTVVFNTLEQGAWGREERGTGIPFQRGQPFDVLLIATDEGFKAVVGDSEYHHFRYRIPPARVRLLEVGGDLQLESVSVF    YES
Gal 9 (Canis lupus) (protein) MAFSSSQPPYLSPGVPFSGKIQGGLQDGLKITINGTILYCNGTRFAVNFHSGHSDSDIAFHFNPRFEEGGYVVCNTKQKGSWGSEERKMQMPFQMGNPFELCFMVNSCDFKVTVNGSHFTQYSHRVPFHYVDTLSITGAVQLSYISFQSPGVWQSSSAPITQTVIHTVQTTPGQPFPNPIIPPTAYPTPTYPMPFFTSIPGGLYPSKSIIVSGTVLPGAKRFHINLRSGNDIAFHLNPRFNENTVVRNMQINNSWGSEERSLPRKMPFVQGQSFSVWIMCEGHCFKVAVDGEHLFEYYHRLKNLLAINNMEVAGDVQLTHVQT    YES
TAL6-4LysM (Trichoderma atroviride) (protein) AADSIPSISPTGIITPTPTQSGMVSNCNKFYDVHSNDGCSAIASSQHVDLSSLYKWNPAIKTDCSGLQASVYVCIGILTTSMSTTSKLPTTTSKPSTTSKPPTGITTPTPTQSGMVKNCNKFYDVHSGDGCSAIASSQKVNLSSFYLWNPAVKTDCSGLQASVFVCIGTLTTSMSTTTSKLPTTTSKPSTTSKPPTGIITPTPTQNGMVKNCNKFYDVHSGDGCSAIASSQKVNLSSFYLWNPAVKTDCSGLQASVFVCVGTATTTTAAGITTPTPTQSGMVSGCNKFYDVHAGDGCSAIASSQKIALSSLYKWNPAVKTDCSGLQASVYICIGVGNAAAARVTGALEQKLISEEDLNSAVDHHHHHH    NO
Si Bti9 1b-V5-his (Solanum lycopersicum) (protein) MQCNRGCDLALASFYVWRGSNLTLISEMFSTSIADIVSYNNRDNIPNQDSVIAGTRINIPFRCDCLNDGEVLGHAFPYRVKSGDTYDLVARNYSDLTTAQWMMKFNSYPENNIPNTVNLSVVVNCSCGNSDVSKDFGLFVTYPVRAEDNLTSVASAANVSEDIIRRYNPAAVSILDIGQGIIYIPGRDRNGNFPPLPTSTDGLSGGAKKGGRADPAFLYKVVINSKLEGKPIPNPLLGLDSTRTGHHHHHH    YES
Erv41-EDTA (Saccharomyces cerevisiae), Q04651 (protein) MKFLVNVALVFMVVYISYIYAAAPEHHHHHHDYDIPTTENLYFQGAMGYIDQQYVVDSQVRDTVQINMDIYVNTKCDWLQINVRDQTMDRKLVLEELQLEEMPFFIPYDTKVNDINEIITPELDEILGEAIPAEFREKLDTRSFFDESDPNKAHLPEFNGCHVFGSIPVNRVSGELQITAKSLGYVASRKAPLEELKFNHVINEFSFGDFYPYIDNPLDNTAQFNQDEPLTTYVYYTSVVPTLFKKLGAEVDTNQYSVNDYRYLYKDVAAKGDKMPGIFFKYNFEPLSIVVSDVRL    YES
Gal 3 (Homo sapiens), P17931 (protein) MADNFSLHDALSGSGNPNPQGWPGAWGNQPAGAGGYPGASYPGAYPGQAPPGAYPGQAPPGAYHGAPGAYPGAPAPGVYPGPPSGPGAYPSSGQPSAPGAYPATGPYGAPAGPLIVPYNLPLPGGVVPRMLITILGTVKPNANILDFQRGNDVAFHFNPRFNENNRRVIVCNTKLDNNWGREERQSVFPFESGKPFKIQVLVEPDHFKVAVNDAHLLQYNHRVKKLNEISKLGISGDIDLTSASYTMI    YES
OVGAL11 (Ovis aries), AAF64320 (protein) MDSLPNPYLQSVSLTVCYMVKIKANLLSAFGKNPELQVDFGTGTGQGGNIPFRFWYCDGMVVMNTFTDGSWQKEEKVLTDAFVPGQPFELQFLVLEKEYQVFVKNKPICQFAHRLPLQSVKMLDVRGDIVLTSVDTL    YES
SP15308C-bot-338-23-338 (Bacteroides ovatus) (protein) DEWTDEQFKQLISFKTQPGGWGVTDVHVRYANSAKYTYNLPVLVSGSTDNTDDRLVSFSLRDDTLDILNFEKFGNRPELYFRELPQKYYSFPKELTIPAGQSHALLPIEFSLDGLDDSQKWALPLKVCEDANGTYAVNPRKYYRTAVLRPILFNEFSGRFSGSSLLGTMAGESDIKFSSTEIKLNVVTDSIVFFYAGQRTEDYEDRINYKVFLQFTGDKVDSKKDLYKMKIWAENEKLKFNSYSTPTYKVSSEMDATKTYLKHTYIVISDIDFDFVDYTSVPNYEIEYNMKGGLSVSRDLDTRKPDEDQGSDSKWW    NO

Determine whether this binder has glycan array binding signal (z-score) no lower than -0.08: HHL-1 (Homo sapiens), P07306 (protein) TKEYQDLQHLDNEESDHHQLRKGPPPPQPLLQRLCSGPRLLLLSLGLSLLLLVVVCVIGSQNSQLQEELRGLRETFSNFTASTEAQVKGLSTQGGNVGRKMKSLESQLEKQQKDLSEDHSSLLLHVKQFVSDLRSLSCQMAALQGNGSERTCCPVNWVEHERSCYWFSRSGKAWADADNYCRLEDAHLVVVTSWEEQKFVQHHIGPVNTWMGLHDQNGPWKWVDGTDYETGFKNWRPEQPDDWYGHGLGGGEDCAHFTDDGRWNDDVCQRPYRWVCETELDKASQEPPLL
NO
